- target_or_test_system: PLA2G7 (Mus musculus, UniProt Q60963)
- Construct: Proteomes (mouse brain membrane fraction or cell lysates); from tissue; host or cells: mouse brain membrane fraction (or cell lysates, not specified)
- Sequence (Q60963 22-440): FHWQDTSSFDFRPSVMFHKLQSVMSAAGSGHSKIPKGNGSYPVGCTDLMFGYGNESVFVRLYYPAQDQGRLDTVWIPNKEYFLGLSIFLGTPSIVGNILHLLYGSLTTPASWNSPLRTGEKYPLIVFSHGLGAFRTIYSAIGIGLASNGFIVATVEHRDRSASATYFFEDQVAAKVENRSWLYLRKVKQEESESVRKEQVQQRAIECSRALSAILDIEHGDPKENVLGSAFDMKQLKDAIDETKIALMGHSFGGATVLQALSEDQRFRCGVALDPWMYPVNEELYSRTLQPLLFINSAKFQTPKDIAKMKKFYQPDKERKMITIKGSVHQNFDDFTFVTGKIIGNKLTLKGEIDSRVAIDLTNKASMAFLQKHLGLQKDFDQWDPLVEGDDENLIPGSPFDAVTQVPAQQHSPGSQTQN
- procedure_summary: In vitro competitive activity-based protein profiling (gel-based, FP-Rh or HT-01 probe)
- Format: biochemical
- setup_conditions: 10 μM inhibitor; read-out: % Inhibition at 10 μM, D = PLA2G7

[
  {
    "compound": "Cc1cnn(C(=O)N2CCCN(C)CC2)c1 [Example 167]",
    "inhibition at 10 µM": "< 25%"
  },
  {
    "compound": "CS(=O)(=O)N1CCN(C(=O)n2cc(Cl)cn2)CC1 [Example 184]",
    "inhibition at 10 µM": "> 75%"
  },
  {
    "compound": "CC(=O)N1CCCN(C(=O)n2cc(C#N)cn2)CC1 [Example 177]",
    "inhibition at 10 µM": "> 75%"
  },
  {
    "compound": "Cc1cc(-c2ccccc2)ccc1CN1CCN(C(=O)n2cc(C(=O)N3CCCC3)cn2)CC1 [Example 85]",
    "inhibition at 10 µM": "> 75%"
  },
  {
    "compound": "O=C(c1cnn(C(=O)N2CCN(Cc3ccccn3)CC2)c1)N1CCC1 [Example 89]",
    "inhibition at 10 µM": "> 75%"
  },
  {
    "compound": "Cc1cnn(C(=O)NCCCCc2ccccc2)c1 [Example 35]",
    "inhibition at 10 µM": "< 25%"
  },
  {
    "compound": "O=C(N1CCN(C(c2ccc(Cl)cc2)c2ccc(Cl)cc2)CC1)n1cc(-c2ccccc2C(F)(F)F)cn1 [Example 123]",
    "inhibition at 10 µM": "25 to 75%"
  },
  {
    "compound": "CC(=O)N1CCN(C(=O)n2cc(C(F)(F)F)cn2)CC1 [Example 149]",
    "inhibition at 10 µM": "> 75%"
  },
  {
    "compound": "Cc1cnn(C(=O)N2CCN(S(C)(=O)=O)CC2)c1 [Example 162]",
    "inhibition at 10 µM": "> 75%"
  },
  {
    "compound": "Cc1ccccc1N1CCN(C(=O)n2cc(C(F)(F)F)cn2)CC1 [Example 230]",
    "inhibition at 10 µM": "> 75%"
  },
  {
    "compound": "O=C(N1CCN(c2ccccc2)CC1)n1cc(C(F)(F)F)cn1 [Example 202]",
    "inhibition at 10 µM": "> 75%"
  },
  {
    "compound": "O=C(c1cnn(C(=O)N2CCN(Cc3ccncc3)CC2)c1)N1CCOCC1 [Example 52]",
    "inhibition at 10 µM": "> 75%"
  },
  {
    "compound": "N#Cc1cnn(C(=O)N2CCOCC2)c1 [Example 205]",
    "inhibition at 10 µM": "> 75%"
  },
  {
    "compound": "CN(CCN(C)S(C)(=O)=O)C(=O)n1cc(C(F)(F)F)cn1 [Example 195]",
    "inhibition at 10 µM": "25 to 75%"
  },
  {
    "compound": "O=C(N1CCN(Cc2ccc(-c3ccccc3)cc2OCc2ccccc2)CC1)n1cc(Cl)cn1 [Example 148]",
    "inhibition at 10 µM": "< 25%"
  },
  {
    "compound": "O=C(c1cnn(C(=O)N2CCN(Cc3cccnc3)CC2)c1)N1CCCCC1 [Example 71]",
    "inhibition at 10 µM": "> 75%"
  },
  {
    "compound": "O=C(c1cnn(C(=O)N2CCN(Cc3ccccn3)CC2)c1)N1CCCCC1 [Example 72]",
    "inhibition at 10 µM": "> 75%"
  },
  {
    "compound": "N#Cc1cnn(C(=O)N2CCN(C(=O)c3ccccc3)CC2)c1 [Example 176]",
    "inhibition at 10 µM": "> 75%"
  },
  {
    "compound": "O=C(c1cnn(C(=O)N2CCN(Cc3ccncn3)CC2)c1)N1CCCC1 [Example 82]",
    "inhibition at 10 µM": "> 75%"
  }
]
